# TARGET OR SYSTEM: T1, human IL-22 (human, UniProt Q9GZX6 34-179)
# T1 sequence: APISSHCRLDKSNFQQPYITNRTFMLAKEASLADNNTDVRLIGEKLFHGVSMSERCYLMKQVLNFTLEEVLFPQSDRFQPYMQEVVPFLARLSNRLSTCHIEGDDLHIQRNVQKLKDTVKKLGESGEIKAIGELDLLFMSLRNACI
# PROTOCOL: cell-based or functional assay
ASSAY METRIC: IC50 (pM) of germlined IgG in BaF3-IL-22R proliferation assay

>>> result_number("166G05 germlined IgG (antibody, V domains shown) VH: QVQLVQSGAEVKKPGASVKVSCKASGYTFSDYYIHWVRQAPGQGLEWMGWVNPDTGGTRYAQKFQGRVTMTRDMSISTAYMELSRLRSDDTAVYYCARDLTGFDPFDIWGQGTLVTVSS VL: SSVLTQPPSVSVAPGKTARITCGGNNFRNKRVHWYQQKPGQAPVLVIYYDSDRPSGIPERFSGSRSGNTATLTISRVEAGDEADYYCQVWDFLTDSGSFGGGTKLTVLG")
109
>>> result_number("087B03 germlined IgG (antibody, V domains shown) VH: EVQLVESGGGVVRPGGSLRLSCAASGFTFDDYGMNWVRQAPGKGLEWVSGVNWNGGTRDYAASVKGRFTISRDNAKNSLYLQMNSLRAEDTALYHCARGWYSGAAWNMGYWGRGTLVTVSS VL: QAALTQPASVSGSPGQSITISCTGASGDVGAYNFVSWYQQHPGKAPKLIIYDVNKRPSGVSNRFSGSKSGNTASLTISGLQAEDEADYYCSSYTSTFSVVFGGGTKLTVLG")
118
>>> result_number("354A08 germlined IgG (antibody, V domains shown) VH: QVQLVQSGAEVKKPGASVKVSCKASGYTFTDYYMHWVRQAPGQGLEWVGWINPYTGGAFYAQKFRGRVTMTRDTSISTAYMELSRLRSDDTAVYYCAREPERFGDSTGQVWGRGTLVTVSS VL: QAVLTQPPSVSGAPGQRVTISCTGSSSNIGAGYGVHWYQQLPGTAPKLLIYGNSNRPSGVPDRFSGSKSGTSASLAITGLQAEDEADYYCYHWDKEQSGYVFGGGTQLTVLG")
79
>>> result_number("356A11 germlined IgG (antibody, V domains shown) VH: QVQLVQSGAEVKKPGASVKVSCKASGYTFTNYYMHWVRQAPGQGLEWVGWINPYTGSAFYAQKFRGRVTMTRDTSISTAYMELSRLRSDDTAVYYCAREPEKFDSDDSDVWGRGTLVTVSS VL: QAVLTQPPSVSGAPGQRVTISCTGSSSNIGAGYGVHWYQQLPGTAPKLLIYGDSNRPSGVPDRFSGSKSGTSASLAITGLQAEDEADYYCQSYDNSLSGYVFGGGTQLTVLG")
53
>>> result_number("355B06 germlined IgG (antibody, V domains shown) VH: QVQLVQSGAEVKKPGASVKVSCKASGYTFTDYYMHWVRQAPGQGLEWVGWINPYTGSAFYAQKFRGRVTMTRDTSISTAYMELSRLRSDDTAVYYCAREPEKFGESSGQLWGRGTLVTVSS VL: QAVLTQPPSVSGAPGQRVTISCTGSSSNIGAGYGVHWYQQLPGTAPKLLIYGDSNRPSGVPDRFSGSKSGTSASLAITGLQAEDEADYYCQSYDSGLSGYVFGGGTQLTVLG")
92
>>> result_number("166B06 germlined IgG (antibody, V domains shown) VH: QVQLVQSGAEVKKPGASVKVSCKASGYTFSDYYIHWVRQAPGQGLEWMGWVNPDTGGTRYAQKFQGRVTMTRDMSISTAYMELSRLRSDDTAVYYCARDLTGFDPFDIWGQGTLVTVSS VL: SSVLTQPPSVSVAPGKTARITCGGNNFRNKRVHWYQQKPGQAPVLVIYYDSDRPSGIPERFSGSRSGNTATLTISRVEAGDEADYYCQVWDLFNDNGVFGGGTKLTVLG")
169
>>> result_number("355E04 germlined IgG (antibody, V domains shown) VH: QVQLVQSGAEVKKPGASVKVSCKASGYTFTHYYMHWVRQAPGQGLEWVGWINPYTGGAFYAQKFQGRVTMTRDTSISTAYMELSRLRSDDTAVYYCAREPEKFDSPNAEIWGRGTLVTVSS VL: QAVLTQPPSVSGAPGQRVTISCTGSSSNIGAGYGVHWYQQLPGTAPKLLIYGNSNRPSGVPDRFSGSKSGTSASLAITGLQAEDEADYYCQSYDSSLSGYVFGGGTQLTVLG")
100
